Here, each record is paired with measured IC50 data.
- experimentalTarget: SCD (stearoyl-CoA desaturase) (Rattus norvegicus, UniProt P07308)
- Sequence (P07308 1-358): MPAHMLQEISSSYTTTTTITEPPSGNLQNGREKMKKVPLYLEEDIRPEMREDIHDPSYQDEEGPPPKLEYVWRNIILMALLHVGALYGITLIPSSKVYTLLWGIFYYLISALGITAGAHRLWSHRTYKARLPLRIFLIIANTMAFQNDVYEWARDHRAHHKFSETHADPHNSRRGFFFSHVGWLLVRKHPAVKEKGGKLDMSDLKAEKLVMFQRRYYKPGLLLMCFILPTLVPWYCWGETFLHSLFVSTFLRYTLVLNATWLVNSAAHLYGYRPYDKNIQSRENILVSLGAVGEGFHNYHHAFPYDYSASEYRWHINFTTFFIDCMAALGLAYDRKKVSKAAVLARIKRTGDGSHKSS
Where a name gives a salt, the structure may show the parent alone.

molecule	experimentalTarget	IC50
CC1Oc2ccc(NCc3ccc(Cl)c(C(F)(F)F)c3)cc2N(CCNC(=O)CO)C1=O (racemic) [Compound 12]	SCD (stearoyl-CoA desaturase) (Rattus norvegicus, UniProt P07308)	1 to 10 nM
O=C(CO)NCCN1C(=O)COc2ccc(NCc3ccc(Cl)c(Cl)c3)cc21 [Compound 8, hydrochloride]	SCD (stearoyl-CoA desaturase) (Rattus norvegicus, UniProt P07308)	1.39 nM
CC(=O)NCCN1C(=O)COc2ccc(NCc3ccccc3)cc21 [Compound 2, hydrochloride]	SCD (stearoyl-CoA desaturase) (Rattus norvegicus, UniProt P07308)	14900 nM
CC(=O)NCCN1C(=O)COc2ccc(NCc3ccc(Cl)c(C(F)(F)F)c3)cc21 [Compound 5, hydrochloride]	SCD (stearoyl-CoA desaturase) (Rattus norvegicus, UniProt P07308)	4.87 nM
O=C1COc2ccc(NCc3ccc(Cl)c(Cl)c3)cc2N1CCOc1ccccc1 [Compound 4]	SCD (stearoyl-CoA desaturase) (Rattus norvegicus, UniProt P07308)	22200 nM
CC(=O)NCCN1C(=O)COc2ccc(NCc3ccc(Cl)c(Cl)c3)cc21 [Compound 3, hydrochloride]	SCD (stearoyl-CoA desaturase) (Rattus norvegicus, UniProt P07308)	10.7 nM
CC(=O)NCCN1C(=O)C(C)Oc2ccc(NCc3ccc(Cl)c(C(F)(F)F)c3)cc21 (racemic) [Compound 10]	SCD (stearoyl-CoA desaturase) (Rattus norvegicus, UniProt P07308)	1 to 10 nM
CC(=O)NCCN1C(=O)COc2ccc(NCc3ccc(F)c(C(F)(F)F)c3)cc21 [Compound 6, hydrochloride]	SCD (stearoyl-CoA desaturase) (Rattus norvegicus, UniProt P07308)	7.8 nM
